measured_target: hGIPR (Homo sapiens)
Sequence (P48546 22-466): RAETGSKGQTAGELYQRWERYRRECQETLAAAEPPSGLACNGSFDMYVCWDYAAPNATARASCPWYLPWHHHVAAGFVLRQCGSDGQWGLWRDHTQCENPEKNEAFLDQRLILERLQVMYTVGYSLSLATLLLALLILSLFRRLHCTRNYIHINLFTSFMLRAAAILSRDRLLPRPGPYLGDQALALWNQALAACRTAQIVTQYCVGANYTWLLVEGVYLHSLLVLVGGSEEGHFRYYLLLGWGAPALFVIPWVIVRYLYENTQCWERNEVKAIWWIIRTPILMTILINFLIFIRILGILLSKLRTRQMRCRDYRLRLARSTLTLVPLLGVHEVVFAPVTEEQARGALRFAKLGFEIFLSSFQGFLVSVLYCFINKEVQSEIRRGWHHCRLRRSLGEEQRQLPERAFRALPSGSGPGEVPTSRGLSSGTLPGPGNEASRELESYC
test_protocol: Functional cAMP activation in the presence of 0.1% casein (no HSA);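 further: intracellular cAMP rise after 30 min at 37 °C read by HTRF against a standard curve, scaled between buffer alone (0%) and top control ligand concentration (100%), four-parameter fit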
Type: cell-based
reported_conditions: in the presence of 0.1% casein (no HSA); geometric mean; read-out: Relative cAMP EC50, hGIPR
Starred links: 1 amine or outer side, 2 acyl side, 3 side chain; linkers in the order of their positions; H or OH if unused. Non-standard residues stand in square brackets, D forms with d. Groups on a side chain read outwards from the residue. *: point of attachment. C20 diacid = O=C(O)CCCCCCCCCCCCCCCCCCC(=O)*; C18 diacid = O=C(O)CCCCCCCCCCCCCCCCC(=O)*; γGlu = O=C(O)[C@H](CCC(=O)[*:2])N[*:1]; αMe4Pal = C[C@](N)(Cc1ccncc1)C(=O)O; αMeY = C[C@](N)(Cc1ccc(O)cc1)C(=O)O; 4Pal = N[C@@H](Cc1ccncc1)C(=O)O; αMeL = CC(C)C[C@](C)(N)C(=O)O; αMeS = C[C@](N)(CO)C(=O)O; Orn = NCCC[C@H](N)C(=O)O; AEEA = NCCOCCOCC(=O)O; Aib = CC(C)(N)C(=O)O
Reported pEC50 values follow for various substances
# pEC50 is unitless: minus log10 of the molar concentration; print number only

Completed entries (count: 2):
H-Y[Aib]QGTFTSD[4Pal]SQ[αMeL]LDKK([γGlu-γGlu-C18 diacid])AQ[αMe4Pal]QFIE[αMeY]LIEGGPSSGAPPPSGS-NH2 [Example 934] :: 10.13
H-Y[Aib]QGTFTSDFSK[αMeL]LDKK([AEEA-γGlu-C20 diacid])AQ[Aib]AFIEYLLAGGPSSGEPPPSGG-NH2 [Example 6] :: 9.63

Query :: Find the recorded pEC50 belonging to H-Y[Aib]QGTFTSD[4Pal][αMeS]Q[αMeL]LD[Orn]K([dE-γGlu-C18 diacid])AQ[αMe4Pal]QFIE[αMeY]LIE[Aib]GPSSGAPPPSGGGE-NH2 [Example 1187] and report it.
Result :: 10.19
